The measured values listed here are drawn from the supplement of paper PMC10567573.

B1: SLC35F2 (parent)
chain: QYLAERYKVNTPMLQSFINYCLLF

variants of: B1; assay: protein stability index of a GFP-peptide fusion (GPS, HEK-293T) (PSI 1-6); higher = more stable; details: c terminus: a fixed tail appended;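 note: lentivirally expressed fusions sorted by FACS into six bins by GFP to DsRed ratio, PSI derived from sequencing read proportions per bin multiplied by bin number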
Collected protein stability index values appear next to each entry.
endpoint name: protein stability index

{"variant key": "Y20A", "endpoint name": "protein stability index", "data value": 3.18}
{"variant key": "P12M", "endpoint name": "protein stability index", "data value": 3.68}
{"variant key": "I18H", "endpoint name": "protein stability index", "data value": 2.9}
{"variant key": "M13E", "endpoint name": "protein stability index", "data value": 2.99}
{"variant key": "K8Y", "endpoint name": "protein stability index", "data value": 3.27}
{"variant key": "F17I", "endpoint name": "protein stability index", "data value": 3}
{"variant key": "E5P", "endpoint name": "protein stability index", "data value": 2.34}
{"variant key": "Q1M", "endpoint name": "protein stability index", "data value": 2.43}
{"variant key": "L22K", "endpoint name": "protein stability index", "data value": 2.83}
{"variant key": "K8V", "endpoint name": "protein stability index", "data value": 2.61}
{"variant key": "Q15P", "endpoint name": "protein stability index", "data value": 3.78}
{"variant key": "V9H", "endpoint name": "protein stability index", "data value": 2.48}
{"variant key": "A4P", "endpoint name": "protein stability index", "data value": 2.88}
{"variant key": "P12D", "endpoint name": "protein stability index", "data value": 3.1}
{"variant key": "M13N", "endpoint name": "protein stability index", "data value": 3.77}
{"variant key": "E5L", "endpoint name": "protein stability index", "data value": 2.72}
